Tested on: HL-60
assay text: cell viability (% survival relative to DMSO control); higher = less cytotoxic
measurement conditions: 10 µM; 72 h; co-treatment: DMSO vehicle
observed property: cell viability
# do not omit the unit; it follows the number

1) Cc1c(-c2ccc(-c3ccccc3F)cc2)nc2ccc(F)cc2c1C(=O)O; 81.3%

The value of cell viability measured for the molecule Cc1cn([C@H]2C[C@H](O)[C@@H](COP(=O)(O)OP(=O)(O)O)O2)c(=O)[nH]c1=O [Thymidine diphosphate] turned out to be 95.1%

Just so you know, measured cell viability for `CCC(=O)N1CCN(c2ccc(-n3c(=O)ccc4cnc5ccc(-c6cnc7ccccc7c6)cc5c43)cc2C(F)(F)F)CC1` came out at 65.4%

Record `CC[C@@]1(O)C(=O)OCc2c1cc1n(c2=O)Cc2cc3c(CN(C)C)c(O)ccc3nc2-1` , field cell viability: 2.79%

###

Test system: K-562
assay text: cell viability (% survival relative to DMSO control, bortezomib = 0%); higher = less cytotoxic
measurement conditions: 10 nM; 72 h
observed property: cell viability

Worked cases, answers included:
1) N#Cc1ccnc(N2C(=O)CC[C@H]2C(=O)N(c2cncc(F)c2)C(C(=O)NC2CC(F)(F)C2)c2ccccc2Cl)c1 (stereo partly specified) [Ivosidenib]; 105%
2) CC[C@@]1(O)C(=O)OCc2c1cc1n(c2=O)Cc2cc3c(CN(C)C)c(O)ccc3nc2-1 [Topotecan]; 92.7%
3) COc1ccc(C(=O)Nc2c(Cl)cncc2Cl)cc1OC1CCCC1 [Piclamilast]; 111%
4) O=C1c2cc([N+](=O)[O-])ccc2-n2c1nc1ccccc1c2=O [GNF-Pf-3777]; 100%
5) CC(C)(C#N)c1cc(Cn2cncn2)cc(C(C)(C)C#N)c1 [Anastrozole]; 95.3%

Turning now to a further compound:
Entry COc1ccc(S(=O)(=O)N2CCN(S(=O)(=O)c3ccc4c(c3)OCCO4)CC2)cc1 [BML283] ; cell viability = 95.2%

###

Tested on: HL-60
assay text: cell viability (% survival relative to DMSO control); higher = less cytotoxic
measurement conditions: 0.1 µM; 72 h; co-treatment: pictilisib 100 nM
cell viability reference
Kindly answer with a numeric value in %, unit omitted.

1. CC(C)(C#N)c1cc(Cn2cncn2)cc(C(C)(C)C#N)c1; 106
2. C[C@H](NC(=O)c1sccc1OCc1ccc(Cl)cc1)c1ccccc1; 94.9

// switching to the query molecule
The reported value for `COc1ccc(C(=O)Nc2c(Cl)cncc2Cl)cc1OC1CCCC1` in terms of cell viability is 96.4

###

Test system: LAMA-84
assay text: cell viability (% survival relative to DMSO control, bortezomib = 0%); higher = less cytotoxic
measurement conditions: 100 nM; 72 h
observed property: cell viability (%)
Numbers only; they are read as %.

Would you please look over these solved cases?
1) O=C(NCCCCCCNC(=O)ONC1=CCCCC1)ONC1=CCCCC1; 112
2) NC(=O)c1cccc(-c2cccc(OC(=O)NC3CCCCC3)c2)c1; 99.6
3) Cc1ccccc1C(C(=O)NC1CCCCC1)N(C(=O)Cn1ccnc1C)c1cccc(F)c1 (configuration not stated); 115
4) NCCCC(N)(C(=O)O)C(F)F (configuration not stated); 91.8
5) N#CC(C#N)=NNc1ccc(OC(F)(F)F)cc1; 94.2
6) Cl.NC(CCC(=O)Nc1ccc([N+](=O)[O-])cc1)C(=O)O (configuration not stated); 98

The compound `O=C(O)C[C@@]1(O)C[C@@H](CCCCCCc2ccc(Cl)cc2Cl)OC1=O` on LAMA-84: cell viability was 92.7

###

Test system: NOMO-1
assay text: cell viability (% survival relative to DMSO control, bortezomib = 0%); higher = less cytotoxic
measurement conditions: 10000 nM; 72 h
observed property: cell viability (%)
Give the value in % but do not write % after it.

1) O=C(O)Cn1nnc(-c2cc(N3CCC(Oc4cc(F)ccc4Br)CC3)no2)n1; 90
2) CCCCN1C[C@H](O)[C@@H](O)[C@H](O)[C@H]1CO; 90

Next:
Recorded cell viability (compound N/C(=N\CCCC(N)C(=O)O)N[N+](=O)[O-] (stereo not drawn) ): 92.2

###

System: K-562
assay text: cell viability (% survival relative to DMSO control, bortezomib = 0%); higher = less cytotoxic
measurement conditions: 10000 nM; 72 h
Parameter: cell viability. Scope: all listed entries.
Please answer using a numeric value trailed by its unit.

These recorded examples may help you get a feel for the data.
1) COC(=O)[C@]12CCC(C)(C)C[C@H]1[C@H]1C(=O)C=C3[C@@]4(C)C=C(C#N)C(=O)C(C)(C)[C@@H]4CC[C@@]3(C)[C@]1(C)CC2; 86.9%
2) COc1ccc2c(C(=S)N(C)CC(=O)O)cccc2c1C(F)(F)F; 105%
3) NCCCC(N)(C(=O)O)C(F)F (stereo not drawn); 126%
4) CCC(=O)N1CCN(c2ccc(-n3c(=O)ccc4cnc5ccc(-c6cnc7ccccc7c6)cc5c43)cc2C(F)(F)F)CC1; 11.7%
5) Cc1c(-c2ccc(-c3ccccc3F)cc2)nc2ccc(F)cc2c1C(=O)O; 40.4%

Entry `NC(=O)c1cccc(-c2cccc(OC(=O)NC3CCCCC3)c2)c1` , cell viability reported as 100%

For reference, reported cell viability for `Nc1nc(Cl)nc2c1ncn2[C@H]1C[C@H](O)[C@@H](CO)O1` stands at 20.5%

For reference, reported cell viability for `CCCCN1C[C@H](O)[C@@H](O)[C@H](O)[C@H]1CO` stands at 89.9%

###

Test system: HL-60
assay text: cell viability (% survival relative to DMSO control); higher = less cytotoxic
measurement conditions: 1 µM; 72 h; co-treatment: AZD3965 100 nM
Recorded measurements of cell viability, one per entry
The reply should contain only the number, in %.

These recorded examples may help you get a feel for the data.
1) COc1ccc2c(C(=S)N(C)CC(=O)O)cccc2c1C(F)(F)F; 97.9
2) O=C(C1CC1)N1CC[C@@H](C=C2NNC(=O)N2c2ccc(-c3ccc4occc4c3)cc2)C1; 76.9

Now consider the entry below.
The compound `O=C(O)c1cc(N=Nc2ccc(S(=O)(=O)Nc3ccccn3)cc2)ccc1O` showed cell viability equal to 97.2

###

Tested on: KU-812
assay text: cell viability (% survival relative to DMSO control, bortezomib = 0%); higher = less cytotoxic
measurement conditions: 1000 nM; 72 h
Reported cell viability by item:
Give just the number in %; leave the unit off.

Below are worked cases with known answers.
1) N#Cc1ccnc(N2C(=O)CC[C@H]2C(=O)N(c2cncc(F)c2)C(C(=O)NC2CC(F)(F)C2)c2ccccc2Cl)c1 (stereo partly drawn) [Ivosidenib]; 106
2) O=C(O)C[C@@]1(O)C[C@@H](CCCCCCc2ccc(Cl)cc2Cl)OC1=O; 98.7

Next compound, please.
Given item `CN(C)C(=O)[C@H](O)[C@H](Cc1ccccc1)NC(=O)c1cc2cc(Cl)ccc2[nH]1` , the value recorded as its cell viability is 104

###

Test system: BV-173
measurement conditions: 72 h
The entries below are paired with their reported IC50 (cell viability).

Example results:
1) CCCCCCCCCCC[C@@H](C[C@@H]1OC(=O)[C@H]1CCCCCC)OC(=O)[C@H](CC(C)C)NC=O [Orlistat]; > 10 µM
2) O=C(O)c1cc(N=Nc2ccc(S(=O)(=O)Nc3ccccn3)cc2)ccc1O [Sulfasalazine]; > 10 µM
3) CN(C)C(=O)[C@H](O)[C@H](Cc1ccccc1)NC(=O)c1cc2cc(Cl)ccc2[nH]1; > 10 µM
4) C[C@](N)(Cc1ccc(O)cc1)C(=O)O [Metirosine]; > 10 µM

Now for a further compound.
compound `O=C(NCCCCCCNC(=O)ONC1=CCCCC1)ONC1=CCCCC1` , IC50 (cell viability) observed: > 10 µM

###

System: HL-60
assay text: cell viability (% survival relative to DMSO control); higher = less cytotoxic
measurement conditions: 0.01 µM; 72 h; co-treatment: DMSO vehicle
observed property: cell viability

1) Cc1c(-c2ccc(-c3ccccc3F)cc2)nc2ccc(F)cc2c1C(=O)O; 98.8%

Recorded result, `C=C(C)[C@H]1Cc2c(ccc3c2O[C@@H]2COc4cc(OC)c(OC)cc4[C@@H]2C3=O)O1` , cell viability: 103%

Recorded result, `O=C(O)c1cc(Cl)cc(Cl)c1O` , cell viability: 105%

The measured cell viability associated with CCCCC/C=C\C/C=C\C/C=C\C/C=C\CCCCN1C(=O)C=CC1=O [N-Arachidonylmaleimide] reads 95.4%

Quick note, cell viability for `CC1(C)[C@@H](O[C@H]2O[C@H](C(=O)O)[C@@H](O)[C@H](O)[C@H]2O[C@@H]2O[C@H](C(=O)O)[C@@H](O)[C@H](O)[C@H]2O)CC[C@]2(C)[C@H]3C(=O)C=C4[C@@H]5C[C@@](C)(C(=O)O)CC[C@]5(C)CC[C@@]4(C)[C@]3(C)CC[C@@H]12` landed at 103%
